molecular target: c-Src SH2; experiment: SH2 binding enrichment of the phosphorylated peptide, bacterial display (enrichment ratio); higher = better substrate or ligand; peptides without Tyr show the background
recorded-metric: SH2 binding enrichment
Answer with a bare number; do not write a unit.

INSERT INTO assay_data (seq, recorded_metric, reported_result) VALUES
  ('RLLVVYPWNQR [HBB_Y36_T39N]', 'SH2 binding enrichment', 1.54),
  ('SVVAPYEPPEV [TP53_Y220_V218A]', 'SH2 binding enrichment', 0.762),
  ('SHMVNYQPYRK [TEX37_Y25_D24N]', 'SH2 binding enrichment', 0.472),
  ('TFGVVYKARNK [CDK2_Y19_YF]', 'SH2 binding enrichment', 0.495),
  ('QNTVDYFDLFG [PTPN11_Y62_G60V_YF]', 'SH2 binding enrichment', 0.759),
  ('VDLIVYLRTNP [TK2_Y181]', 'SH2 binding enrichment', 0.468);

Now for another entry.
Problem: SH2 binding enrichment lookup needed for EQKKFSNAMKK [SCN5A_Y1495_Y1495S_YF] , thanks.
Solution: 0.642

###

Here, each record is paired with measured SH2 binding enrichment data.
molecular target: SHP2-C SH2; test: SH2 binding enrichment of the phosphorylated peptide, bacterial display (enrichment ratio); higher = better substrate or ligand; peptides without Tyr show the background
Could you keep your reply to the number by itself?

Answered examples (5):
INSERT INTO results (seq, experimental_target, recorded_metric, reported_result) VALUES
  ('AAVNGYVFGGG [ECHS1_Y137_A138V]', 'SHP2-C SH2', 'SH2 binding enrichment', 0.994),
  ('LNCAGYCDALE [MTUS1_Y151]', 'SHP2-C SH2', 'SH2 binding enrichment', 0.58),
  ('ERMKVYVPIGF [EPHX1_Y393_T396I]', 'SHP2-C SH2', 'SH2 binding enrichment', 0.909),
  ('RESFKYLPSSL [CXXC1_Y218_F219L_YF]', 'SHP2-C SH2', 'SH2 binding enrichment', 0.455),
  ('KKKKQYKDKFL [CASK_Y708_YF]', 'SHP2-C SH2', 'SH2 binding enrichment', 0.408);

Problem: Short answer please: SH2 binding enrichment, SHP2-C SH2, entry EQKKFSNAMKK [SCN5A_Y1495_Y1495S_YF]
Solution: 0.64

Problem: I'm curious: which SH2 binding enrichment was measured for LKRIAYFLCLR [LGI1_Y21_L26R] tested on SHP2-C SH2?
Solution: 0.652

Problem: Form entry - test system: SHP2-C SH2; read-out: SH2 binding enrichment; sequence: GGRIDYIAGLD [APRT_Y60]
Solution: 0.728

Problem: Checklist item: SH2 binding enrichment tested on SHP2-C SH2, entry AGLVQYYMEHH [PTPN11_Y80_E76G] , value?
Solution: 1.25

Problem: Write down the reported SH2 binding enrichment of ADRSCYDLSCR [GARS1_Y467_H472R] , test system: SHP2-C SH2.
Solution: 0.779

Problem: // lookup SH2 binding enrichment | system=SHP2-C SH2 | key= VLTSKYHGGGG [HBA1_Y141_R142H]
Solution: 0.715

Problem: Lab request: please report SH2 binding enrichment under test system SHP2-C SH2 for WQQQSYLDSEI [CTNNB1_Y30_G34E]
Solution: 0.707

Problem: Identify the measured SH2 binding enrichment of KEAVLYPHLPP [SQSTM1_Y383_A381V] for SHP2-C SH2.
Solution: 0.658

###

molecular target: EPHB2 (UniProt P29323); experiment: phosphorylation enrichment, bacterial display (enrichment ratio); higher = better substrate or ligand; peptides without Tyr show the background
Sequence (P29323 whole entry, looked up): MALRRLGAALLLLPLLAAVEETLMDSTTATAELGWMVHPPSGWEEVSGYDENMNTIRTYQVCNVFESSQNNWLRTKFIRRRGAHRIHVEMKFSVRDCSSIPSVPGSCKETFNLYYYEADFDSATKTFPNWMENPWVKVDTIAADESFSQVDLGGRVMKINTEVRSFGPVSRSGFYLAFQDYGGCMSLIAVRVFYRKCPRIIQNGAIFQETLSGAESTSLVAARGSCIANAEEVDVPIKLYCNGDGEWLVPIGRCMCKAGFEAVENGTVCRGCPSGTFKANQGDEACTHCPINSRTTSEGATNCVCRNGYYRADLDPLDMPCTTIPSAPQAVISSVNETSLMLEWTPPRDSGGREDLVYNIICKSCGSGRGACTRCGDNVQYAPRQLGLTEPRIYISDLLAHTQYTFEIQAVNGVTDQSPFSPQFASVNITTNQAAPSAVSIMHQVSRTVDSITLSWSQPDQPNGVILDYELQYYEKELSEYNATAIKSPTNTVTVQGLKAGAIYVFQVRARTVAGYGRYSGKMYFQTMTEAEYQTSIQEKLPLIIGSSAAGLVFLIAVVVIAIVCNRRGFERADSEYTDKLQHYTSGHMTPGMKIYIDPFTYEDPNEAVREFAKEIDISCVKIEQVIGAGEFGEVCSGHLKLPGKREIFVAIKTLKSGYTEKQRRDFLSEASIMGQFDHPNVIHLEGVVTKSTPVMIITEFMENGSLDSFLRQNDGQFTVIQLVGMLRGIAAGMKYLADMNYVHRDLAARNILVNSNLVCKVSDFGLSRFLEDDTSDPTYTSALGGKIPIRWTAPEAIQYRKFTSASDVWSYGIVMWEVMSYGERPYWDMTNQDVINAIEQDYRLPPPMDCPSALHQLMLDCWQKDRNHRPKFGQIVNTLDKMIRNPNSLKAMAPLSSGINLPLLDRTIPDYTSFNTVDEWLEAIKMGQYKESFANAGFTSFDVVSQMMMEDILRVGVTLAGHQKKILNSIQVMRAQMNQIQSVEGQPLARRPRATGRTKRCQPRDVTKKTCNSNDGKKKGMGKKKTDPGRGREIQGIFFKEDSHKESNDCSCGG
phosphorylation enrichment for assorted sequences
Provide a numeric answer; units are not to be included.

These recorded examples may help you get a feel for the data.
INSERT INTO results (seq, reported_result) VALUES
  ('RGYRQYAYDGK [HLA-A_Y140_D140Y]', 0.243),
  ('LQRVQCDLQKA [DSP_Y1512_Y1512C]', 0.827),
  ('PYSSPYENSLI [EPOR_Y489_N487S]', 0.596);

Problem: Returns the measured phosphorylation enrichment for the input sequence. Input: LERYIYNPEEF [HLA-DPB1_Y59_R61P]
Solution: 0.965

###

phosphorylation enrichment for assorted sequences
molecular target: EPHB1 (UniProt P54762); assay: phosphorylation enrichment, bacterial display (enrichment ratio); higher = better substrate or ligand; peptides without Tyr show the background
Sequence (P54762 whole entry, looked up): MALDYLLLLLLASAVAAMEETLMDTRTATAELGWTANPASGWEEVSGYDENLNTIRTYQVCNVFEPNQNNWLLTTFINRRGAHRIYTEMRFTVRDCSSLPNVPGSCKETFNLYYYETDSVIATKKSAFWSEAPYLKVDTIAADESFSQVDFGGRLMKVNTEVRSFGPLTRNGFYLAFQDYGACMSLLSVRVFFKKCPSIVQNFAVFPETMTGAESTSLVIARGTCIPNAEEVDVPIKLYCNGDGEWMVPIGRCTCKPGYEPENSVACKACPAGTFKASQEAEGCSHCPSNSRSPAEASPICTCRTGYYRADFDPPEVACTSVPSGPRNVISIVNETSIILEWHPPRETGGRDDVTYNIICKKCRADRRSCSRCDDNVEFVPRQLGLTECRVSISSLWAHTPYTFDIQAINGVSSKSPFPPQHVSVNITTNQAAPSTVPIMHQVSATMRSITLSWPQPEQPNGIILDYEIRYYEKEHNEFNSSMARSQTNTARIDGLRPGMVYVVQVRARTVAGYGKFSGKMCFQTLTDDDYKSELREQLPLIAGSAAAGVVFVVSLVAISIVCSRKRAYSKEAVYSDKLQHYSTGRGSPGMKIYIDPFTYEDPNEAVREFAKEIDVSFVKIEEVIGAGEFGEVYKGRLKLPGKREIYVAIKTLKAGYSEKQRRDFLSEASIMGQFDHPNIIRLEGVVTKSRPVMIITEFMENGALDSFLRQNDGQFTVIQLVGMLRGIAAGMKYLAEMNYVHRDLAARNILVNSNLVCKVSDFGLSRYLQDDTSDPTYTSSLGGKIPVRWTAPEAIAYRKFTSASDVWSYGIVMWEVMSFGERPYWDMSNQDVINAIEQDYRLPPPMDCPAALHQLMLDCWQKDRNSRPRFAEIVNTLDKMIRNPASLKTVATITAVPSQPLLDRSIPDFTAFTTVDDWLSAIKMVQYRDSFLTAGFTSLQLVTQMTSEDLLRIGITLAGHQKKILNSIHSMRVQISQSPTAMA
Format: numeric value only, no unit, no commentary.

Problem: Reported phosphorylation enrichment for RGERPYGGGGG [FUS_Y526_R522G] : what is it?
Solution: 0.185

###

target: Fes (UniProt P07332); assay: phosphorylation enrichment, bacterial display (enrichment ratio); higher = better substrate or ligand; peptides without Tyr show the background
Sequence (P07332 whole entry, looked up): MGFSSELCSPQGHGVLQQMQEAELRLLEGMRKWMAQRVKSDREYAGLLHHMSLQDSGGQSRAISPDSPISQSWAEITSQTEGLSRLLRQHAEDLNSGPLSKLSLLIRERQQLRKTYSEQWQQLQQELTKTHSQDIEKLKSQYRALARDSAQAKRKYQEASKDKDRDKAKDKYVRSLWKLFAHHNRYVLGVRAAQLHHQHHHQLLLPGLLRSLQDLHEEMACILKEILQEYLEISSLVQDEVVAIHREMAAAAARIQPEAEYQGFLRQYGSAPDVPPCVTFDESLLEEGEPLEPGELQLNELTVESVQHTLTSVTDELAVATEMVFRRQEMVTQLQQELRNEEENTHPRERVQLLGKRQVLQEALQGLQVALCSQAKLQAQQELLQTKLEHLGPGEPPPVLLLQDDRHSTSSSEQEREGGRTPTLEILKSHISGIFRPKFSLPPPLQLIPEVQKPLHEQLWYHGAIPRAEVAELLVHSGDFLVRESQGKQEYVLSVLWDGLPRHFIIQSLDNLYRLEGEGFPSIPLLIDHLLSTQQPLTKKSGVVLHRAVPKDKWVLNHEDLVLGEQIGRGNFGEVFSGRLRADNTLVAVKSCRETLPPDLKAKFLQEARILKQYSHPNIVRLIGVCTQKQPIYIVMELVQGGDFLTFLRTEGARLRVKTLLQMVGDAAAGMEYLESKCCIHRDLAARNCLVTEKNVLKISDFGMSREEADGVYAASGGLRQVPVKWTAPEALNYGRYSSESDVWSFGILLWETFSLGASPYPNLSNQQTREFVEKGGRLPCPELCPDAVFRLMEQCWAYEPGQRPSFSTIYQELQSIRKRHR
Kindly return 1 if reported phosphorylation enrichment is no lower than 1; return -1 if it is lower.

INSERT INTO results (seq, class_name) VALUES
  ('LVMFFYAIFGM [SCN1A_Y1684_I1683F]', 1),
  ('NAPNSYGRRPS [CDKN2A_Y44_I49S]', -1),
  ('SGIFQYIIAKF [FOXL2_Y83_YF]', 1),
  ('ATDLAYFLVRK [ASL_Y375_YF]', 1),
  ('LTERGYSFTTT [ACTB_Y198]', -1);

Problem: Tell me whether phosphorylation enrichment is at least 1 here: LFVDVYGPSVP [NUBPL_Y109_D105Y_YF]
Solution: 1

Problem: Kindly determine if phosphorylation enrichment recorded for GISDEYHVIQH [GCDH_Y398_R402Q] is above or exactly 1.
Solution: -1

Problem: # check: phosphorylation enrichment of DWRQEYVLNES [TGM1_Y267] is greater than or equal to 1
Solution: 1

Problem: Tell me whether phosphorylation enrichment is at least 1 here: FRIDHYLGKEM [G6PD_Y202_YF]
Solution: 1

###

target: FGFR1 (UniProt P11362); experiment: phosphorylation enrichment, bacterial display (enrichment ratio); higher = better substrate or ligand; peptides without Tyr show the background
Sequence (P11362 whole entry, looked up): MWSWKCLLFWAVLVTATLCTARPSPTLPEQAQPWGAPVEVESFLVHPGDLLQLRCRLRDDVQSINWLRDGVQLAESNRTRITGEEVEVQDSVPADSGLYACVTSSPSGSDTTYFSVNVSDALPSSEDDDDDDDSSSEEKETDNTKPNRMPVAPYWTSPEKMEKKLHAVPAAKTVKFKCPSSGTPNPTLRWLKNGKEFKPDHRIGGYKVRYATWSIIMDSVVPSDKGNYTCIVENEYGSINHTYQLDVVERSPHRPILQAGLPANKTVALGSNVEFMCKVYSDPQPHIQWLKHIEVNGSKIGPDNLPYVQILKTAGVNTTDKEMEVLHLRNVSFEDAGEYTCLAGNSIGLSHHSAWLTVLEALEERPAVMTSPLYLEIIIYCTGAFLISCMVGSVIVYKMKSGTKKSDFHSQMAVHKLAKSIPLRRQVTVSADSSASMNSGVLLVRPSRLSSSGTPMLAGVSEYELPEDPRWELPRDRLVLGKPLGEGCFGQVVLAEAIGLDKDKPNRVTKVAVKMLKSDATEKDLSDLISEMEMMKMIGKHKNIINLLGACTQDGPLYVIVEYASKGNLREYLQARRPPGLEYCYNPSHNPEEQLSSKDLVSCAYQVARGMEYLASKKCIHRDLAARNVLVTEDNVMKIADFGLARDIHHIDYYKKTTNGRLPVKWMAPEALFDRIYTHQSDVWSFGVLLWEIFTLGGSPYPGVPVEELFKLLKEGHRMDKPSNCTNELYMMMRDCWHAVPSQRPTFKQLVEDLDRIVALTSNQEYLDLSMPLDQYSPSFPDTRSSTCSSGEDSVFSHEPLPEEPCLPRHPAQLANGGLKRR
The label depends only on phosphorylation enrichment: Fulfilled if it is at least 0.5, Not fulfilled if it is smaller.

INSERT INTO results (seq, experimental_target, class_name) VALUES
  ('KLFRVYCDMNT [FGB_Y269_P265L_YF]', 'FGFR1 (UniProt P11362)', 'Fulfilled'),
  ('YGEYRYRSVIK [CFTR_Y517_D513G]', 'FGFR1 (UniProt P11362)', 'Not fulfilled'),
  ('RFLERYIFNPE [HLA-DPB1_Y57_R61P_YF]', 'FGFR1 (UniProt P11362)', 'Not fulfilled'),
  ('CSRRLYQLTKL [AR_Y858_F857L]', 'FGFR1 (UniProt P11362)', 'Fulfilled'),
  ('KGLKVYVNGTL [ADGRD1_Y183_E178K]', 'FGFR1 (UniProt P11362)', 'Not fulfilled'),
  ('RRAKGYPINLF [ITGB2_Y125_D128N_YF]', 'FGFR1 (UniProt P11362)', 'Not fulfilled'),
  ('MKSIKYMDKEV [CCDC60_Y41_I46V]', 'FGFR1 (UniProt P11362)', 'Not fulfilled'),
  ('LERYIYNPEEF [HLA-DPB1_Y59_R61P]', 'FGFR1 (UniProt P11362)', 'Fulfilled'),
  ('RDLEQYVNNVN [PCDH19_Y1097]', 'FGFR1 (UniProt P11362)', 'Not fulfilled'),
  ('QELRRYLKSGI [MICA_Y194_V199I]', 'FGFR1 (UniProt P11362)', 'Not fulfilled');

Problem: Given the entry PPKFFYTRKLL [CYBB_Y41] , answer whether its phosphorylation enrichment meets or surpasses 0.5.
Solution: Fulfilled

Problem: Would you say LLANAYIYVVQ [L1CAM_Y418] shows phosphorylation enrichment at minimum 0.5?
Solution: Fulfilled

Problem: Could you tell me if the measured phosphorylation enrichment of DCAAIYGNEPD [AKR1A1_Y50_E55D] reaches 0.5 or more?
Solution: Fulfilled

###

Listed below: phosphorylation enrichment values for each entry.
target: Fyn (UniProt P06241); assay: phosphorylation enrichment, bacterial display (enrichment ratio); higher = better substrate or ligand; peptides without Tyr show the background
Sequence (P06241 whole entry, looked up): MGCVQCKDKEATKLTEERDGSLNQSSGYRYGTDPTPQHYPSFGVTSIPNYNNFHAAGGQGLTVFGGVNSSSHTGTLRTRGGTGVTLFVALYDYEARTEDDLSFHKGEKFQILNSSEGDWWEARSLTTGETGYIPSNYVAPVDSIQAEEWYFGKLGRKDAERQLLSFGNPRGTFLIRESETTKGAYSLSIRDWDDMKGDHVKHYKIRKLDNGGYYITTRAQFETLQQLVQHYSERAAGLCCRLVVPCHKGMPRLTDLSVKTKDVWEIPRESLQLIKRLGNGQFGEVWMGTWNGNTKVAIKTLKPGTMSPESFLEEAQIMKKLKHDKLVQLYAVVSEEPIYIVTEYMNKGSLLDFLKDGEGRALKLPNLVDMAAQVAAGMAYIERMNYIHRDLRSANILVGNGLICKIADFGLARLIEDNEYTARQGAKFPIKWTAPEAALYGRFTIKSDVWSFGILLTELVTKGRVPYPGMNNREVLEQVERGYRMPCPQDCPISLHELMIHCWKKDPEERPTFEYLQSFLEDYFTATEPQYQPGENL
Give your answer as a number; write no unit.

# count of solved cases: 6
INSERT INTO results (seq, recorded_metric, reported_result) VALUES
  ('DPGVSYHTREE [PDHA1_Y301_R302H]', 'phosphorylation enrichment', 0.483),
  ('LTSKPYAFTAQ [NDUFS1_Y236_R241Q]', 'phosphorylation enrichment', 0.489),
  ('HKLSYYEYDFE [BTK_Y40]', 'phosphorylation enrichment', 2.13),
  ('AEYGLYGAMVR [VSX2_Y222]', 'phosphorylation enrichment', 7.64),
  ('ISDNAYQFMLT [MYH7_Y162_YF]', 'phosphorylation enrichment', 0.654),
  ('DKATEYIQYVR [MAX_Y70_M74V]', 'phosphorylation enrichment', 0.535);

Could you now look at the following sequence, please?
Problem: What value of measured phosphorylation enrichment is listed for LGRTRYQHVTG [MIPEP_Y510] ?
Solution: 0.488
